Please provide measured Stability, value at 7 DAY, RF for the entries that follow.
assay: Stability of prodrugs on storage at RT and RF; format: physicochemical; conditions: 7 day, storage under refrigeration/4° C., acetonitrile for analysis; in % (unit assumed)
Answers are plain numbers.

Worked set:
COC(=O)/C=C/C(=O)OC[n+]1cccc(C(=O)N(C)C)c1.[I-] [SPR11576]
97.7
CNC(=O)c1ccc[n+](COC(=O)/C=C/C(=O)OC)c1.[I-] [SPR11575]
97.82

Could you tell me Stability, value at 7 DAY, RF for each of these compounds? They are listed below.
1. COC(=O)/C=C/C(=O)OC[n+]1cccc(C(N)=O)c1.[I-] [SPR11574]
2. COC(=O)/C=C/C(=O)OCOC(=O)c1cccnc1 [SPR11577, methyl((nicotinoyloxy) methyl)fumarate]

Response:
1: 97.61; 2: 99.89

* * *

test: Stability of prodrugs on storage at RT and RF; assay type: physicochemical; conditions: 0 day (14 Nov. 2018), dissolved in acetonitrile for analysis; in % (unit assumed)
Assignment: determine reported Stability, value at 0 DAY for the given compounds.
Give bare numbers.

Parameter requested: Stability, value at 0 DAY. Apply to each item below.
1. COC(=O)/C=C/C(=O)OC[n+]1cccc(C(N)=O)c1.[I-] [SPR11574]
2. COC(=O)/C=C/C(=O)OCOC(=O)c1cccnc1 [SPR11577, methyl((nicotinoyloxy) methyl)fumarate]
3. CNC(=O)c1ccc[n+](COC(=O)/C=C/C(=O)OC)c1.[I-] [SPR11575]
4. COC(=O)/C=C/C(=O)OC[n+]1cccc(C(=O)N(C)C)c1.[I-] [SPR11576]

Response:
1. 97.81
2. 99.35
3. 97.7
4. 97.68

* * *

test: Rat plasma conversion (ex-vivo); assay type: in vitro ADME
reported_metric: Rat plasma conversion

COC(=O)/C=C/C(=O)OC[n+]1cccc(C(=O)N(C)C)c1.[I-] [SPR11576]
convert instantly
COC(=O)/C=C/C(=O)OCOC(=O)c1cccnc1 [SPR11577, methyl((nicotinoyloxy) methyl)fumarate]
convert instantly
COC(=O)/C=C/C(=O)OC[n+]1cccc(C(N)=O)c1.[I-] [SPR11574]
convert instantly
CNC(=O)c1ccc[n+](COC(=O)/C=C/C(=O)OC)c1.[I-] [SPR11575]
convert instantly

* * *

assay: Stability of prodrugs on storage at RT and RF; format: physicochemical; details: 15 day, storage at room temp/25° C., acetonitrile for analysis; in % (unit assumed)
reported_metric: Stability, value at 15 DAY, RT
One number for each entry.

COC(=O)/C=C/C(=O)OCOC(=O)c1cccnc1 [SPR11577, methyl((nicotinoyloxy) methyl)fumarate]
100
CNC(=O)c1ccc[n+](COC(=O)/C=C/C(=O)OC)c1.[I-]
97.06
COC(=O)/C=C/C(=O)OC[n+]1cccc(C(N)=O)c1.[I-]
97.21

Then there is this compound:
Query: Record request: Stability, value at 15 DAY, RT value, item COC(=O)/C=C/C(=O)OC[n+]1cccc(C(=O)N(C)C)c1.[I-]
Response: 96.28

* * *

Would you kindly list Stability, value at 7 DAY, RT for each of these compounds?
assay: Stability of prodrugs on storage at RT and RF; assay type: physicochemical; details: 7 day, storage at room temp/25° C., acetonitrile for analysis; in % (unit assumed)
Answers are plain numbers.

Record Stability, value at 7 DAY, RT for all entries; do not skip any.
1. COC(=O)/C=C/C(=O)OCOC(=O)c1cccnc1 [SPR11577, methyl((nicotinoyloxy) methyl)fumarate]
2. CNC(=O)c1ccc[n+](COC(=O)/C=C/C(=O)OC)c1.[I-]
3. COC(=O)/C=C/C(=O)OC[n+]1cccc(C(=O)N(C)C)c1.[I-]
4. COC(=O)/C=C/C(=O)OC[n+]1cccc(C(N)=O)c1.[I-]

Response:
99.79
97.61
96.97
97.61
